- system-under-test: T1, GST-SDE2SAP (human, UniProt Q6IQ49 350-451)
- T1 sequence: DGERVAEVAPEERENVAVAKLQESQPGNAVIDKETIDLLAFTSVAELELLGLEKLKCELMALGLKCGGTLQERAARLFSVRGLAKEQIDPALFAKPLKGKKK
- protocol-description: fluorescence anisotropy; EMSA: 10 mM Tris-HCl pH 7.5, 50 mM NaCl, 0.5 mM DTT, 0.05 mM EDTA, 3% glycerol, 0.05 mg/ml BSA (or 50 mM Na/K PO4 pH 6.0, 50 mM NaCl, 5 mM DTT), on ice; anisotropy: 50 mM Na/K PO4 pH 6.0, 50 mM NaCl, 5 mM DTT, 1 uM DNA; pull-down: 10 mM Tris-HCl pH 7.5, 100 mM NaCl, 0.2 mM EDTA, 1 mM DTT, 10% glycerol, 0.01% NP-40, 10 ug/ml BSA, RT; NMR: 50 mM Na/K phosphate, 50 mM NaCl, 5 mM DTT, 10% D2O
- run-parameters: protein: recombinant; tags: N-term GST; label: 5' 6-FAM
measured-property: pKd
For clarity, pKd is expressed as the negative log10 of concentration in mol/L.

Query pKd for 60-mer ssDNA (EMSA1) (ssDNA) DNA: GACGCTGCCGAATTCTACCAGTGCCTTGCTAGGACATCTTTGCCCACCTGCAGGTTCACCC
5.75
